target: human CB2 (hCB2) (Homo sapiens, UniProt P34972); construct: (cDNA clone) CNR0200000; assay: 35S GTPγS binding assay, hCB2 agonist; type: biochemical
Sequence (P34972 whole entry): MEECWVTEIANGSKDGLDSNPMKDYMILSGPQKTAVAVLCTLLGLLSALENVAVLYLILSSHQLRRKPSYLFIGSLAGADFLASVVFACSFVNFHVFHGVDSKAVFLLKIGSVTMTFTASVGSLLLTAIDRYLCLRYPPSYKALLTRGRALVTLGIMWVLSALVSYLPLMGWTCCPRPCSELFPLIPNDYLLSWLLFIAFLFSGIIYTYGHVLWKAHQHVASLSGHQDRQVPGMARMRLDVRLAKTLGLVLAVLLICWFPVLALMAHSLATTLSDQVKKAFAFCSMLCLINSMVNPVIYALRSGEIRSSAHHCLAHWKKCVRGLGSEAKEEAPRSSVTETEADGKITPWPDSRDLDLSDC
# EC50 values compiled below

Below: 10 compounds and their reported EC50.
>>> df
                                   compound                              study_target   readout_value
0  COc1ccc(C(=O)c2cc3cc(C)n(CCN4CCOCC4)c3s2)c(Cl)n1 [Compound 137]  human CB2 (hCB2) (Homo sapiens, UniProt P34972)        < 100 nM
1  COc1cc(F)c(C(=O)c2cc3cc(C)n(CC4CCOCC4)c3s2)c(F)c1 [Compound 180]  human CB2 (hCB2) (Homo sapiens, UniProt P34972)        < 100 nM
2  Cc1cc2cc(C(=O)c3ccc(OC(F)(F)F)cc3)sc2n1CCN1CCOCC1 [Compound 65]  human CB2 (hCB2) (Homo sapiens, UniProt P34972)  100 to 1000 nM
3  Cc1cc2cc(C(=O)c3ccc4c(c3)OCO4)sc2n1CCN1CCOCC1 [Compound 106]  human CB2 (hCB2) (Homo sapiens, UniProt P34972)        < 100 nM
4  CCN(CC)CCn1c(C)cc2cc(C(=O)c3ccc(OC)nc3)sc21 [Compound 142]  human CB2 (hCB2) (Homo sapiens, UniProt P34972)  100 to 1000 nM
5  Cc1cc2cc(C(=O)c3ccc(OC(C)C)cc3)sc2n1CCN1CCOCC1 [Compound 111]  human CB2 (hCB2) (Homo sapiens, UniProt P34972)  100 to 1000 nM
6  COc1ccc(C(=O)c2cc3cc(C)n(CCN4CCC(OC)CC4)c3s2)cn1 [Compound 156]  human CB2 (hCB2) (Homo sapiens, UniProt P34972)      > 10000 nM
7  Cc1cc2cc(C(=O)c3ccc(Cl)cc3)sc2n1CCN1CCOCC1 [Compound 6]  human CB2 (hCB2) (Homo sapiens, UniProt P34972)        < 100 nM
8  COc1ccc(C(=O)c2cc3cc(C)n(CCN4CCOCC4)c3s2)cc1Cl [Compound 116]  human CB2 (hCB2) (Homo sapiens, UniProt P34972)        < 100 nM
9  COc1ccc(C(=O)c2cc3cc(C)n(CCC(C)(C)O)c3s2)cc1 [Compound 77]  human CB2 (hCB2) (Homo sapiens, UniProt P34972)  100 to 1000 nM

Value (EC50, human CB2 (hCB2) (Homo sapiens, UniProt P34972)) for record COc1ccc(C(=O)c2cc3cc(C)n(CC(OC)OC)c3s2)cn1 [Compound 161] = 1000 to 10000 nM

Case COc1ccc(C(=O)c2cc3cc(C)n(CCNS(C)(=O)=O)c3s2)cc1 [Compound 71] , human CB2 (hCB2) (Homo sapiens, UniProt P34972), EC50 recorded as 100 to 1000 nM

Item: COc1ccc(C(=O)c2cc3cc(C)n(CCCNC(=O)C(F)(F)F)c3s2)cc1 [Compound 76] | System: human CB2 (hCB2) (Homo sapiens, UniProt P34972) | EC50: 100 to 1000 nM

The observed EC50 for COc1ccc(C(=O)c2cc3cc(C)n(CCN4CCCC4)c3s2)cc1 [Compound 83] when tested with human CB2 (hCB2) (Homo sapiens, UniProt P34972) stands at 100 to 1000 nM

# COc1ccccc1C(=O)c1cc2cc(C)n(CCN3CCOCC3)c2s1 [Compound 13] with human CB2 (hCB2) (Homo sapiens, UniProt P34972): EC50 is < 100 nM

Considering COc1ccc(C(=O)c2cc3cc(C)n(CCCNC(C)(C)C)c3s2)cc1 [Compound 108] , its EC50 with human CB2 (hCB2) (Homo sapiens, UniProt P34972) was recorded as 100 to 1000 nM

human CB2 (hCB2) (Homo sapiens, UniProt P34972) EC50 of Cc1cc2cc(C(=O)c3cccc(Cl)c3Cl)sc2n1CC1CCCCN1C (centres unmarked) [Compound 24] is < 100 nM

Let me check: CCCn1c(C)cc2cc(C(=O)c3cccc(Cl)c3Cl)sc21 [Compound 3] , system human CB2 (hCB2) (Homo sapiens, UniProt P34972), measured EC50 is < 100 nM

The observed EC50 for Cc1cc2cc(C(=O)c3cccc4c3OCC4)sc2n1CCN1CCOCC1 [Compound 11] when tested with human CB2 (hCB2) (Homo sapiens, UniProt P34972) stands at < 100 nM

Let me check: COc1ccc(C(=O)c2cc3cc(C)n(CCN4CCCCC4)c3s2)c(F)c1 [Compound 98] , system human CB2 (hCB2) (Homo sapiens, UniProt P34972), measured EC50 is < 100 nM

Record for COc1ccc(C(=O)c2cc3cc(C)n(CCN4CCOCC4)c3s2)cc1 [Compound 36] under target or system human CB2 (hCB2) (Homo sapiens, UniProt P34972): EC50 reported as < 100 nM

Item COc1ccc(C(=O)c2cc3cc(C)n(CC4CCC(F)(F)CC4)c3s2)cn1 [Compound 170] was tested on human CB2 (hCB2) (Homo sapiens, UniProt P34972); the reported EC50 is < 100 nM

Item COc1ccc(C(=O)c2cc3cc(C)n(C[C@@H]4COCCN4C)c3s2)cn1 [Compound 171] was tested on human CB2 (hCB2) (Homo sapiens, UniProt P34972); the reported EC50 is > 10000 nM
